biological target: Aminopeptidase N (Plasmodium falciparum (isolate 3D7)); test: malaria alanyl aminopeptidase activity blockers – biochemical, fluorogenic H-Leu-NHMec substrate, 1536-well (AID 1445); details: recombinant M1AAP, H-Leu-NHMec fluorogenic kinetic assay; at 30 µM, active compounds read high unless noted;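 note: plate controls were DMSO full reaction for no effect and no enzyme background for full effect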
Out of some 220,000 compounds screened, about 910 (0.41%) were called active. This excerpt belongs to a sample that is enriched for actives. Measured potencies and affinities stand elsewhere.
Would you kindly list inhibition for each of these molecules?
Answers are plain numbers, in %.

Below, each entry is followed by its recorded inhibition result.
| molecule | inhibition [%] |
| --- | --- |
| CCN1CCN(Cc2cc(=O)oc3ccc(Cl)cc23)CC1 | 1.72 |
| CN1CCN(Cc2c(O)c(Cl)cc3c(-c4ccccc4)cc(=O)oc23)CC1 | 19.7 |
| O=C1CS/C(=C/C(=O)c2ccccc2)N1 | 25.3 |
| CCCCn1nnnc1NCc1cccnc1 | 4.66 |
| COc1ccccc1C(=O)Oc1cc(N)n(S(=O)(=O)c2ccccc2)n1 | 11.1 |

Report inhibition for every entry below.
1. NS(=O)(=O)c1ccc(CCNC(=O)CSc2nc3ccsc3c(=O)n2CC(=O)O)cc1
2. O=C(CC(Cc1ccccc1)c1ccco1)NC1CCCCC1 (stereo not given)
3. N=c1sccn1CC(=O)Nc1ccc(S(=O)(=O)N2CCOCC2)cc1
4. Cc1ccc(C(=O)/C=C2/NC(=O)CS2)cc1
5. Cc1cc(C)n(-c2nc3c(c(=O)[nH]c(=O)n3C)n2Cc2cccc(Br)c2)n1

Output line:
2.18
3.48
-2.17
17.7
6.71

====

target: Aminopeptidase N (Plasmodium falciparum (isolate 3D7)); assay: malaria alanyl aminopeptidase activity blockers – biochemical, fluorogenic H-Leu-NHMec substrate, 1536-well (AID 1445); settings: recombinant M1AAP, H-Leu-NHMec fluorogenic kinetic assay; at 30 µM, active compounds read high unless noted;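 note: plate controls were DMSO full reaction for no effect and no enzyme background for full effect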
About 910 (0.41%) of roughly 220,000 compounds were called active. The sample holds actives, similar compounds and a random draw of the others, so the mix is not that of the screen. Entries with a potency or affinity are not part of this list.
Would you kindly list inhibition for each of these compounds?

| compound | target_or_test_system | inhibition |
| --- | --- | --- |
| Cc1ccc(S(=O)(=O)NN=C2CCN(Cc3ccccc3)CC2)cc1 | Aminopeptidase N (Plasmodium falciparum (isolate 3D7)) | 4.22% (inactive) |
| COc1ccc2c(c1)C=C(CN1CCN(C(C)C)C(CCO)C1)CO2 (stereo not drawn) | Aminopeptidase N (Plasmodium falciparum (isolate 3D7)) | -13.9% (inactive) |

Report inhibition for every entry below.
1. COc1nc(Nc2ccc([N+](=O)[O-])cc2)nc(NC2CCCCC2)n1
2. O=C(COc1cccc2cccnc12)N/N=C/c1ccccc1O
3. COc1ccc(C(=O)Nc2nc3nc(-c4ccccc4)cc(=O)n3[nH]2)cc1

Output line:
8.38% (inactive)
-2.77% (inactive)
10.9% (inactive)

Report inhibition for every entry below.
1. Cc1ccc(C)c2[nH]c(=O)c(CN(Cc3ccco3)S(=O)(=O)c3ccc4c(c3)OCCO4)cc12
2. CC(C)(C)c1ccc(C(=O)NNC(=O)c2ccc(Cl)cc2)cc1
3. CCCC(=O)OCC(=O)Nc1ccc2c(c1)OCO2

Output line:
11.6% (inactive)
0.45% (inactive)
-0.89% (inactive)

Data provenance is PubChem BioAssay AID1445.
